Test system: Bach1 mRNA
Experiment: Initial screen: Bach1 mRNA knock-down in mouse NIH 3T3 cells (96-well transfection, quantitative RT-PCR)
Assay type: cell-based
Conditions: mouse NIH3T3 cells, n = 2, 24 hrs post-transfection, protocol 10 nM siNA
[invAb] = inverted abasic unit; m = 2'-O-methyl; r = 2'-OH (RNA); f = 2'-fluoro
Record form. Attribute: % KD. Fill in for each entry.
Answers are plain numbers, in %.

// solved cases for % KD follow
29963-DC: Bach1 siNA duplex, target site 362; sense B GGAuuuGAAccuuuAAuuc TTB (SEQ 75); antisense GAAuuAAAGGuucAAAuccUU (SEQ 76) (sense GGAUUUGAACCUUUAAUUCTT; antisense GAAUUAAAGGUUCAAAUCCUU; sense: DNA at AGT, 2'-fluoro at CU, [invAb] at 5' end, 3' end, backbone not given here; antisense: sugars from the 5' end rrrffmmmmmfffmmmfffmm, backbone not given here) :: 18.5
29967-DC: Bach1 siNA duplex, target site 494 (mouse); sense B GAGuuucuAAGcGuAcAcA TTB (SEQ 83); antisense UGUGuAcGcuuAGAAAcucUU (SEQ 84) (sense GAGUUUCUAAGCGUACACATT; antisense UGUGUACGCUUAGAAACUCUU; sense: DNA at AGT, 2'-fluoro at CU, [invAb] at 5' end, 3' end, backbone not given here; antisense: sugars from the 5' end rrrmfmfmfffmmmmmfffmm, backbone not given here) :: 34.7
29982-DC: Bach1 siNA duplex, target site 1752 (mouse); sense B cAuucAAuGcccAAcGGAu TTB (SEQ 113); antisense AUCcGuuGGGcAuuGAAuGUU (SEQ 114) (sense CAUUCAAUGCCCAACGGAUTT; antisense AUCCGUUGGGCAUUGAAUGUU; sense: DNA at AGT, 2'-fluoro at CU, [invAb] at 5' end, 3' end, backbone not given here; antisense: sugars from the 5' end rrrfmffmmmfmffmmmfmmm, backbone not given here) :: 9

# per-item lookup of % KD; items listed below
1. 29962-DC: Bach1 siNA duplex, target site 1240; sense B cAGGGAAGAuAGuAGuGuu TTB (SEQ 73); antisense AACAcuAcuAucuucccuGUU (SEQ 74) (sense CAGGGAAGAUAGUAGUGUUTT; antisense AACACUACUAUCUUCCCUGUU; sense: DNA at AGT, 2'-fluoro at CU, [invAb] at 5' end, 3' end, backbone not given here; antisense: sugars from the 5' end rrrmffmffmffffffffmmm, backbone not given here)
2. 29970-DC: Bach1 siNA duplex, target site 1472 (mouse); sense B GAGuGucccuGGuuGGGuA TTB (SEQ 89); antisense UACccAAccAGGGAcAcucUU (SEQ 90) (sense GAGUGUCCCUGGUUGGGUATT; antisense UACCCAACCAGGGACACUCUU; sense: DNA at AGT, 2'-fluoro at CU, [invAb] at 5' end, 3' end, backbone not given here; antisense: sugars from the 5' end rrrffmmffmmmmmfmfffmm, backbone not given here)
3. 29977-DC: Bach1 siNA duplex, target site 1640 (mouse); sense B GAGccuuGcccGuAuGcuu TTB (SEQ 103); antisense AAGcAuAcGGGcAAGGcucUU (SEQ 104) (sense GAGCCUUGCCCGUAUGCUUTT; antisense AAGCAUACGGGCAAGGCUCUU; sense: DNA at AGT, 2'-fluoro at CU, [invAb] at 5' end, 3' end, backbone not given here; antisense: sugars from the 5' end rrrfmfmfmmmfmmmmfffmm, backbone not given here)

1. 21.3
2. 69.4
3. 53

* * *

Tested on: Bach1 mRNA
Experiment: Initial screen: Bach1 mRNA knock-down in human A549 cells (96-well transfection, quantitative RT-PCR)
Assay type: cell-based
Details: Bach1 mRNA, 10 nM siNA, human A549 cells, n = 2, mean ± S.D., normalized to GAPDH and non-targeting control, 24 hrs post-transfection
[invAb] = inverted abasic unit; d = 2'-deoxy (DNA); m = 2'-O-methyl; r = 2'-OH (RNA); f = 2'-fluoro
Observable: % KD (%)
Numbers only, in %.

29965-DC: Bach1 siNA duplex, target site 596; sense B GAccAGAGGGAucuAGAAA TTB (SEQ 79); antisense UUUcuAGAucccucuGGucUU (SEQ 80) (sense GACCAGAGGGAUCUAGAAATT; antisense UUUCUAGAUCCCUCUGGUCUU; sense: sugars from the 5' end d2 f2 d7 f3 d7, [invAb] at 5' end, 3' end, backbone not given here; antisense: sugars from the 5' end rrrffmmmfffffffmmffmm, backbone not given here) :: 34.4
29956-DC (sense GUCUGAGUGUCCGUGGUUATT; antisense UAACCACGGACACUCAGACUU; inverted abasic caps (B), 2'-modified nucleotides, further chemistry not given here) :: 75.8

Now, please, on to the next substance.
Looking up 29971-DC: Bach1 siNA duplex, target site 2488 (mouse); sense B GuAGcuuucuGuuGAGGGA TTB (SEQ 91); antisense UCCcucAAcAGAAAGcuAcUU (SEQ 92) (sense GUAGCUUUCUGUUGAGGGATT; antisense UCCCUCAACAGAAAGCUACUU; sense: sugars from the 5' end rfddffffffdffdddddddd, [invAb] at 5' end, 3' end, backbone not given here; antisense: sugars from the 5' end rrrfffmmfmmmmmmffmfmm, backbone not given here) , I see its % KD listed as 23.9

* * *

Tested on: Bach1 mRNA
Experiment: Initial screen: Bach1 mRNA knock-down in human A549 cells (96-well transfection, quantitative RT-PCR)
Type: cell-based
Conditions: Bach1 mRNA, 10 nM siNA, human A549 cells, n = 2, mean ± S.D., normalized to GAPDH and non-targeting control, 24 hrs post-transfection
Protocol: All cells were obtained from ATCC (Manassas, Va.) unless otherwise indicated. Cells were grown and transfected under standard conditions, which are detailed below for each cell line. Cells were plated in all wells of a tissue-culture treated, 96-well plate at a final count of 5000 cells/well in 100 μL of the appropriate culture media. […] The expression level of the gene of interest and % knock-down was calculated using Comparative Ct method: […]
[invAb] = inverted abasic unit; m = 2'-O-methyl; r = 2'-OH (RNA); f = 2'-fluoro
Observable: % KD (%)
Numbers only, in %.

Value of % KD reported for the substance 29950-DC: Bach1 siNA duplex, target site 470; sense B GAGGAAuccuGcuuucAGu TTB (SEQ 49); antisense ACUGAAAGcAGGAuuccucUU (SEQ 50) (sense GAGGAAUCCUGCUUUCAGUTT; antisense ACUGAAAGCAGGAUUCCUCUU; sense: DNA at AGT, 2'-fluoro at CU, [invAb] at 5' end, 3' end, backbone not given here; antisense: sugars from the 5' end rrrmmmmmfmmmmffffffmm, backbone not given here) is 90.6

* * *

System: Bach1 mRNA
Experiment: Initial screen: Bach1 mRNA knock-down in mouse NIH 3T3 cells (96-well transfection, quantitative RT-PCR)
Type: cell-based
Conditions: mouse NIH3T3 cells, n = 2, 24 hrs post-transfection, protocol 10 nM siNA
[invAb] = inverted abasic unit; d = 2'-deoxy (DNA); m = 2'-O-methyl; r = 2'-OH (RNA); f = 2'-fluoro
Observable: % KD (%)
Give bare numbers, in %.

# count of solved cases: 5
29947-DC (sense GGAAUCCUGCUUUCAGUUUTT; antisense AAACUGAAAGCAGGAUUCCUU; inverted abasic caps (B), 2'-modified nucleotides, further chemistry not given here) :: 46
29974-DC: Bach1 siNA duplex, target site 1739 (mouse); sense B GAGGuGAAGcuGccAuucA TTB (SEQ 97); antisense UGAAuGGcAGcuucAccucUU (SEQ 98) (sense GAGGUGAAGCUGCCAUUCATT; antisense UGAAUGGCAGCUUCACCUCUU; sense: DNA at AGT, 2'-fluoro at CU, [invAb] at 5' end, 3' end, backbone not given here; antisense: sugars from the 5' end rrrmfmmfmmffffmffffmm, backbone not given here) :: −12
29953-DC: Bach1 siNA duplex, target site 1096; sense B cAcAuAuGAccAAuAuGGu TTB (SEQ 55); antisense ACCAuAuuGGucAuAuGuGUU (SEQ 56) (sense CACAUAUGACCAAUAUGGUTT; antisense ACCAUAUUGGUCAUAUGUGUU; sense: DNA at AGT, 2'-fluoro at CU, [invAb] at 5' end, 3' end, backbone not given here; antisense: sugars from the 5' end rrrmfmffmmffmfmfmfmmm, backbone not given here) :: −11
29961-DC (sense CUACACUGCUAAACUGAUUTT; antisense AAUCAGUUUAGCAGUGUAGUU; inverted abasic end caps, TT overhangs, modified nucleotides, further chemistry not given here) :: −23.5
29954-DC: Bach1 siNA duplex, target site 1389; sense B cAGAAcAGAucucAcAGAA TTB (SEQ 57); antisense UCCuGuGAGAucuGuucuGUU (SEQ 58) (sense CAGAACAGAUCUCACAGAATT; antisense UCCUGUGAGAUCUGUUCUGUU; sense: DNA at AGT, 2'-fluoro at CU, [invAb] at 5' end, 3' end, backbone not given here; antisense: sugars from the 5' end rrrfmfmmmmfffmffffmmm, backbone not given here) :: −10.2

# % KD of 29985-DC: Bach1 siNA duplex, target site 1312; sense B AGGcuucuGGAGuGAcAuu TTB (SEQ 119); antisense AAUGucAcuccAGAAGccuUU (SEQ 120) (sense AGGCUUCUGGAGUGACAUUTT; antisense AAUGUCACUCCAGAAGCCUUU; sense: sugars from the 5' end dddfffffddddfrdfdffdd, [invAb] at 5' end, 3' end, backbone not given here; antisense: sugars from the 5' end rrrmffmffffmmmmmfffmm, backbone not given here) = 1.3
